MEASUREMENT TARGET: Cytochrome P450 2C19 (Homo sapiens)
EXPERIMENTAL DETAILS: blockers of cytochrome P450 2C19 activity – biochemical, luminescence, ADME assay, primary screen (AID 778);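 further: plate controls were negative control wells for no effect and 2.5 mM tranylcypromine positive control for full effect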
TEST CONTEXT: CYP2C19 Supersomes, luciferin-H EGE luminescence, 30 min; at 5 µM; active compounds read high
Among all 96,000 compounds or so, about 20,000 (21%) were called active. A selection follows.
MEASURE NAME: inhibition

Here's what some known entries look like.
{"COMPOUND": "Cn1c2c(c(=O)n(C)c1=O)[C@@H]1c3c(ccc4ccccc34)OC[C@@H]1CO2", "MEASURE NAME": "inhibition", "RESULT": "33.8% (inactive)"}
{"COMPOUND": "COc1ccc(NC(=O)COC(=O)Cn2c(C)nc3ccccc32)cc1OC", "MEASURE NAME": "inhibition", "RESULT": "-0.3% (inactive)"}
{"COMPOUND": "COc1ccc(-c2nc3ccccc3n2CCC(C)C)cc1OC", "MEASURE NAME": "inhibition", "RESULT": "61.3% (active)"}
{"COMPOUND": "COc1ccc(OC)c(S(=O)(=O)N(C)CC(=O)N2CCN(c3ccccc3)CC2)c1", "MEASURE NAME": "inhibition", "RESULT": "72.6% (active)"}

For CCOC(=O)N1CCN(C(=O)c2ccc3c(c2)N(Cc2ccc(C)cc2)CCS3)CC1 the compound record lists inhibition as 30% (inactive)

For Cc1cccc(NC(=O)Cn2cc(C(=O)c3ccco3)c3ccccc32)c1 the compound record lists inhibition as -13.3% (inactive)

For CS(=O)(=O)N(CC(=O)N1CCN(c2cccc(Cl)c2)CC1)c1ccccc1 the compound record lists inhibition as 46.4% (inactive)

For Cc1nc(N2CCOCC2)nc2c1CCCC2 the compound record lists inhibition as 28.5% (inactive)

For CCOC(=O)C1(C(F)(F)F)N=C(N(C)C)OC(N(C)C)=N1 the compound record lists inhibition as -7.2% (inactive)

----------
inhibition: recorded values
MEASUREMENT TARGET: Cytochrome P450 2C19 (Homo sapiens)
EXPERIMENTAL DETAILS: blockers of cytochrome P450 2C19 activity – biochemical, luminescence, ADME assay, primary screen (AID 778);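 further: plate controls were negative control wells for no effect and 2.5 mM tranylcypromine positive control for full effect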
TEST CONTEXT: CYP2C19 Supersomes, luciferin-H EGE luminescence, 30 min; at 5 µM; active compounds read high
Hit rate of the full screen: of about 96,000 compounds, about 20,000 (21%) were called active. These entries were drawn from the full list.

Here's what some known entries look like.
{"CPD SMILES": "COc1ccc(S(=O)(=O)NCc2ccc(C(=O)N(C)Cc3ccco3)cc2)cc1", "MEASURE NAME": "inhibition", "RESULT": "29.2% (inactive)"}
{"CPD SMILES": "CCS(=O)(=O)NCCc1ccc(OC)c(OC)c1", "MEASURE NAME": "inhibition", "RESULT": "12.9% (inactive)"}
{"CPD SMILES": "O=C(Nc1ccc2c(c1)CCC2)c1cccc(S(=O)(=O)N2CCN(c3ccc(F)cc3)CC2)c1", "MEASURE NAME": "inhibition", "RESULT": "26% (inactive)"}
{"CPD SMILES": "N#C/C(=C\\c1ccccc1)c1n[nH]c(Cn2cncn2)n1", "MEASURE NAME": "inhibition", "RESULT": "23.3% (inactive)"}
{"CPD SMILES": "COc1ccc(C(=O)NCCc2ccc(S(N)(=O)=O)cc2)cc1OC", "MEASURE NAME": "inhibition", "RESULT": "-5.6% (inactive)"}

For COc1ccc(CCNS(=O)(=O)c2ccc(C(=O)NCc3ccco3)cc2)cc1OC the compound record lists inhibition as 56.7% (active)

For COc1ccc2c(c1)CCc1c(C(=O)Nc3c(C)n(C)n(-c4ccccc4)c3=O)noc1-2 the compound record lists inhibition as 25.7% (inactive)

For COc1ccc(C(=O)N(CCN2CCOCC2)CC(=O)NC2CCCC2)cc1OC the compound record lists inhibition as -7.2% (inactive)

For COc1ccc(CCNS(=O)(=O)c2ccc(F)cc2)cc1OC the compound record lists inhibition as 93.2% (active)

For COc1ccc2c(c1)CCc1c(C(=O)N3CCCC3)noc1-2 the compound record lists inhibition as 4.9% (inactive)

All values here come from PubChem BioAssay AID778.
